- ASSAYED_SYSTEM: Ataxin-2 (Homo sapiens) (UniProt Q99700)
- Sequence (Q99700 whole entry): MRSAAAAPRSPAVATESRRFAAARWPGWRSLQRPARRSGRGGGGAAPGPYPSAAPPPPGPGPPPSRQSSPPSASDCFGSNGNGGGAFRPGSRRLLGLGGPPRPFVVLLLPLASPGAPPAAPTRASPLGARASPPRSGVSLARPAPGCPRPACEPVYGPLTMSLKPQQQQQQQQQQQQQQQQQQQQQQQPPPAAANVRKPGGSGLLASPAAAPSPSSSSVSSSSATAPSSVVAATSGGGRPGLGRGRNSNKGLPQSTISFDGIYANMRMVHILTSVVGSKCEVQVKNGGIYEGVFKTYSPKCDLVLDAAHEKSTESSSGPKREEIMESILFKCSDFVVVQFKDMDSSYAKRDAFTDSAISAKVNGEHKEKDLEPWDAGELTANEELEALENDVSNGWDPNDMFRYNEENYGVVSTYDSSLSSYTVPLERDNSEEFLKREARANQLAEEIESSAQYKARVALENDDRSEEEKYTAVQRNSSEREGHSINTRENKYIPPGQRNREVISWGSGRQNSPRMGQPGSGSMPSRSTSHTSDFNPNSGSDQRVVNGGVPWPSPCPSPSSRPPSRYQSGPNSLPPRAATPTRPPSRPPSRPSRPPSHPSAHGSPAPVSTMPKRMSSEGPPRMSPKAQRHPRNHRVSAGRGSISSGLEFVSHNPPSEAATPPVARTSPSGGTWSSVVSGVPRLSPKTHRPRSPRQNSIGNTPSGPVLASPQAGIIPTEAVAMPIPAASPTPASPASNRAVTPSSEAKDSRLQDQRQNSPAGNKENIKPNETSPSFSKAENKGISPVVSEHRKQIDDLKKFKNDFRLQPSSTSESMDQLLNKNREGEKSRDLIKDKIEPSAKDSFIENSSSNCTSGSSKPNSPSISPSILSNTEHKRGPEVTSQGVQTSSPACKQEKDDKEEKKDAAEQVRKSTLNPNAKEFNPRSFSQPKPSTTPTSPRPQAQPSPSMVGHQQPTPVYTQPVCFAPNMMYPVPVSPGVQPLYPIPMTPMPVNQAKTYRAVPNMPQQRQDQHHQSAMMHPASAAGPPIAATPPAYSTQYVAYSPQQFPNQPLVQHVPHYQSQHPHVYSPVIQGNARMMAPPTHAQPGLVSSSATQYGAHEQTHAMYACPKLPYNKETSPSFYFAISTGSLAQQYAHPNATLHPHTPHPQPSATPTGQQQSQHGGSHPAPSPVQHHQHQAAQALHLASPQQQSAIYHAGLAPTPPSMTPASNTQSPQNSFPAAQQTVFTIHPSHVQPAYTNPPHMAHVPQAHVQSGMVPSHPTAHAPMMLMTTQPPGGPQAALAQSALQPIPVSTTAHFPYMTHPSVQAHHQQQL
- ASSAY_COMMENT: qHTS for Inhibitors of ATXN expression.
- Assay type: functional
The whole screen tested about 400,000 compounds, of which about 2,100 (0.53%) were called active. Not shown: some 14% with an inconclusive outcome. How the calls were made is not given here. The sample holds actives, similar compounds and a random draw of the others, so the mix is not that of the screen.
Classes used: TRUE (active), FALSE (inactive)

compound=CCCCc1c(-c2ccccc2Br)ncn1CCc1ccccc1OC class_label=TRUE
compound=COCCNc1c2c(c(C#N)c3nc4ccccc4n13)CCCC2 class_label=FALSE
compound="COCOCCn1cc(CN2CCS(=O)(=O)N(Cc3ccc(-c4ccc(Cl)c(Cl)c4)cc3)C(C)C2=O)nn1 (stereo unspecified)" class_label=TRUE
compound="COCOCCn1cc(CN2CCS(=O)(=O)N(Cc3ccc(-c4ccccc4)cc3)C(CC(C)C)C2=O)nn1 (stereo unspecified)" class_label=TRUE
compound="COC(=O)CC1C(=O)NCCN1C(=O)CSc1nc2ccccc2c(=O)n1CC(C)C (stereo unspecified)" class_label=FALSE
compound="CCOc1ccc(N2C(=O)c3[nH]nc(-c4cccs4)c3C2c2cccc(F)c2)cc1 (stereo unspecified)" class_label=TRUE
compound=O=C(COC(=O)c1ccccc1C(=O)c1ccc(Cl)c([N+](=O)[O-])c1)NC1CCCCCC1 class_label=TRUE
compound=C=CCNC(=O)c1ccccc1NC(=O)Cc1ccccc1[N+](=O)[O-] class_label=FALSE
compound=CCOC(=O)C1=C(Cc2ccc(Cl)cc2)C(=O)c2ccccc2C1=O class_label=TRUE
compound="CC(=O)Nc1ccc(NC(=O)C(C)OC(=O)c2ccccc2C(=O)c2ccc(Cl)c([N+](=O)[O-])c2)cc1 (stereo unspecified)" class_label=TRUE
compound=COc1ccc(C(=O)c2sc(Nc3ccccc3)nc2N)cc1OC class_label=FALSE
compound=COc1cccc(CN=C(S)Nc2cc(C)ccc2C)c1 class_label=FALSE
compound=COc1ccc(C(=O)c2sc(Nc3ccccc3)nc2C)cc1 class_label=FALSE
compound=O=C(c1ccccc1NS(=O)(=O)c1ccc([N+](=O)[O-])cc1[N+](=O)[O-])N1O[C@@H]2C=C[C@H]1C2 class_label=TRUE
compound=CC[n+]1c(/C=C2/C=C(C)CC(C)(C)C2)sc2ccc(OC)cc21 class_label=TRUE
compound=CCCc1c(-c2ccccc2Br)ncn1Cc1ccccc1OC class_label=TRUE
compound=CCOC(=O)c1cc(-c2ccc3c(c2)OCO3)nc2onc(C)c12 class_label=FALSE
compound="COCOCCn1cc(CN2CCS(=O)(=O)N(Cc3ccc(-c4ccc(Cl)c(Cl)c4)cc3)C(C(C)C)C2=O)nn1 (stereo unspecified)" class_label=TRUE
compound=COc1ccc(N2C3=C(C(=O)CC(C)(C)C3)C(c3ccccc3OC)C3=C2CC(C)(C)CC3=O)cc1 class_label=FALSE
compound="CC1(C)CC(=O)C2=C(C1)N1C(=C(C#N)C2c2ccc(Cl)cc2)N=C(N)c2ccccc21 (stereo unspecified)" class_label=TRUE
compound=O=C(CN(C(=O)c1ccccc1Cl)C1CCCCC1)Nc1ccc(Cl)c([N+](=O)[O-])c1 class_label=TRUE
compound="CC(=O)Nc1ccc(C2CC(c3ccc(Cl)cc3)=NN2c2ccccc2)cc1 (stereo unspecified)" class_label=FALSE
compound=Nc1cccc2c1C(=O)N(CCOc1ccccc1F)C2=O class_label=FALSE
compound="CC(=O)Nc1ccc(NC(=O)C(C)OC(=O)CCSc2ccccc2Cl)cc1 (stereo unspecified)" class_label=FALSE
compound=COc1ccccc1[C@@H]1C(c2cccc(Cl)c2)=NN(c2ccc(Br)cc2)[C@H]1C(=O)N1CCOC1=O class_label=FALSE
compound="CC(=O)Nc1cccc(-c2ccnc3c2CC(C(=O)Nc2ccc(F)c(Cl)c2)O3)c1 (stereo unspecified)" class_label=TRUE
compound="NC(Cc1ccc(Cl)cc1)c1csc(Nc2ccc(C(=O)c3ccccc3)cc2)n1 (stereo unspecified)" class_label=TRUE
compound=CN(C(=O)COC(=O)c1ccc([N+](=O)[O-])cc1N)c1ccccc1 class_label=FALSE
compound=COc1ccc(/C=C/C(=O)c2ccccc2)cc1Cn1nnc2ccccc21 class_label=TRUE
compound=CN(CCC#N)C(=O)COC(=O)c1c2c(nc3ccccc13)/C(=C/c1ccco1)CC2 class_label=FALSE
compound=CN(Cc1ccsc1)C(=O)CCc1nnc(CCCc2ccccc2)o1 class_label=FALSE
compound=Cc1ccc(C(=O)COC(=O)CCC(=O)NC2CCCCC2)cc1[N+](=O)[O-] class_label=FALSE
compound="COc1ccc(C2CC(c3cccs3)=NN2c2ccccc2)cc1 (stereo unspecified)" class_label=FALSE
compound=CCCCc1c(-c2ccccc2F)ncn1CCc1ccccc1OC class_label=TRUE
compound=O=C(O)Cc1sc(Nc2ccccc2)nc1-c1ccccc1 class_label=FALSE
compound=O=C(COC(=O)Cc1ccsc1)NNC(=O)c1ccccc1 class_label=FALSE
compound="COc1ccc(OC)c(C2c3c(-c4ccc(Br)cc4)n[nH]c3C(=O)N2c2ccc(Cl)cc2)c1 (stereo unspecified)" class_label=TRUE
compound=CCCCCc1c(-c2ccccc2OC)ncn1CCc1ccccc1OC class_label=TRUE
compound="COCCn1c(N)c(C(=O)NCC2CCCO2)c2nc3ccccc3nc21 (stereo unspecified)" class_label=FALSE
compound=COc1ccc(-c2oc3ccccc3c(=O)c2OC(C)=O)cc1 class_label=FALSE
compound="O=C(Nc1cccc(OC(F)(F)F)c1)C1Cc2c(-c3ccc4c(c3)OCO4)ccnc2O1 (stereo unspecified)" class_label=TRUE

Source: ChEMBL document CHEMBL1201862
